Molecular target: human CCR-3 (Homo sapiens)
Sequence (P51677 1-355): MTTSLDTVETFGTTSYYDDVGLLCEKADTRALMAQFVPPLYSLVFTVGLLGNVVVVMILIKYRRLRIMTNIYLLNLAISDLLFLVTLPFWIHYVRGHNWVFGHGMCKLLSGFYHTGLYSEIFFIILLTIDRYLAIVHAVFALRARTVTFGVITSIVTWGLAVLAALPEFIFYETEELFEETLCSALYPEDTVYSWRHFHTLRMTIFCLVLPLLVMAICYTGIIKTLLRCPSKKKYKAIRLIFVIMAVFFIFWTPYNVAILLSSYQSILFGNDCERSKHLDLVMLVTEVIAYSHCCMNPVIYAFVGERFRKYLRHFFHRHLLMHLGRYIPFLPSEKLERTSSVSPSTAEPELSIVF
pIC50: −log10 of the molar value.
READOUT LABEL: pIC50

CCOc1ccc2nc(SCC(=O)NCC3CN(Cc4ccc(Cl)c(Cl)c4)C3)sc2c1
6.70
